experiment: decreased DLD-1 cellular survival, CellTiter-Glo luminescent readout, NPC compound collection, primary HTS (AID 1117346); settings: DLD-1 viability, CellTiter-Glo luminescence; at 20 µM (top of the series)
Activity calls are given as the source filed them.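 How the source made its calls: active means compounds that lower survival of DLD-1 colon cancer cells in the luminescence readout, no cutoff given; inactive means the rest.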
Mark one answer only. Choices: label 1 for active, label 0 for inactive

Consider the worked cases shown below.
{"COMPOUND": "[N-]=[N+]=CC(=O)OC[C@H](N)C(=O)O", "QUALITATIVE LABEL": "label 1"}
{"COMPOUND": "Clc1ccc(CO/N=C(\\Cn2ccnc2)c2ccc(Cl)cc2Cl)c(Cl)c1", "QUALITATIVE LABEL": "label 1"}
{"COMPOUND": "CNC(=O)Oc1cccc2ccccc12", "QUALITATIVE LABEL": "label 0"}
{"COMPOUND": "O=[N+]([O-])C(Br)(CO)CO", "QUALITATIVE LABEL": "label 1"}
{"COMPOUND": "CC(Cc1ccc2c(c1)OCO2)NCC(O)c1ccc(O)c(O)c1 (stereo unspecified)", "QUALITATIVE LABEL": "label 0"}
{"COMPOUND": "FC(F)(F)c1cccc(C2=CCN(CCc3ccc4ccccc4c3)CC2)c1", "QUALITATIVE LABEL": "label 0"}
{"COMPOUND": "CC1=C2[C@H]3OC(=O)[C@@H](C)[C@@H]3CC[C@@]2(C)C=CC1=O", "QUALITATIVE LABEL": "label 0"}
{"COMPOUND": "CCC1(c2ccc(N)cc2)CCC(=O)NC1=O (stereo unspecified)", "QUALITATIVE LABEL": "label 0"}

# outcome recorded in this test, key = CN1CCc2cc(Cl)c(O)cc2[C@H]2c3ccccc3CC[C@@H]21 label 0

# outcome recorded in this test, key = C[N+]1(C)[C@@H]2CC[C@H]1CC(OC(=O)C(CO)c1ccccc1)C2 (stereo partly specified) label 0

# outcome recorded in this test, key = CC(C)=CC1C(C(=O)OCc2cccc(Oc3ccccc3)c2)C1(C)C (stereo unspecified) label 0

---

molecular target: Plasmodium falciparum protein kinase 6 (PK6, PF3D7_1337100) (UniProt Q8IDW1); test: PfPK6 kinase inhibitors, biochemical, TCAMS library (AID 1159586); settings: recombinant PfPK6, Kinase-Glo ATP depletion luminescence
Results with a measured potency or affinity are listed apart. Calls of active or inactive are those of the source. The rule behind the calls is not given here.
ASSAY METRIC: outcome

Known outcome results, listed for orientation:
{"COMPOUND": "COCC(=O)N(Cc1cccc(-c2ccc(CNCCc3ccccc3)cc2)c1)C1CCN(Cc2ccccc2)CC1", "outcome": "inactive"}
{"COMPOUND": "O=C(/C=C/c1ccc(F)c(C(F)(F)F)c1)N1CCC(CN2CCC(c3c[nH]c4ccccc34)CC2)CC1", "outcome": "inactive"}
{"COMPOUND": "CN1C(=O)OC[C@@H]1Cc1ccc2[nH]cc(C3=CCN(Cc4ccccc4)CC3)c2c1", "outcome": "inactive"}
{"COMPOUND": "Oc1ccccc1CN1CCC(CCOC(c2ccccc2)c2ccc(Cl)cc2)CC1 (stereo not given)", "outcome": "inactive"}
{"COMPOUND": "O=C(Nc1ccc(Cl)c(Cl)c1)N1CCC(CN2CCC(c3c[nH]c4ccccc34)CC2)CC1", "outcome": "inactive"}
{"COMPOUND": "O=C(/C=C/c1ccsc1)NC1CCC(CN2CCC(c3c[nH]c4ccccc34)CC2)CC1 (stereo not given)", "outcome": "inactive"}
{"COMPOUND": "Cc1[nH]c2ccccc2c1C1=CCN(C[C@H]2C[C@@H]2C(=O)c2ccccc2)CC1", "outcome": "inactive"}
{"COMPOUND": "COc1ccc(CN2CCN(CCOC(c3ccccc3)c3ccccc3)CC2)c(O)c1", "outcome": "inactive"}

For CN1CC=C(c2c[nH]c3ccc(Br)cc23)CC1 on Plasmodium falciparum protein kinase 6 (PK6, PF3D7_1337100) (UniProt Q8IDW1), measured outcome was inactive

For CCc1ccc(CN2CCC(CN(C(=O)c3ccccc3)c3ccc(Cl)cc3)CC2)cc1 on Plasmodium falciparum protein kinase 6 (PK6, PF3D7_1337100) (UniProt Q8IDW1), measured outcome was inactive

---

test: sensitizers of A549 cells to miR-34 induction, primary screen, imaging, A549 dox-inducible miR-34, nuclei and caspase counts (AID 1347080); settings: A549 miR-34 inducible, Hoechst nuclei count, 48 h; measured here: relative caspase fold change +Dox/-Dox
fold change values, listed per item
Just the number, please, no unit after it.

{"MOLECULE": "CN(C)CCc1ccc(O)cc1", "fold change": 0.849}
{"MOLECULE": "COc1cc2c(cc1O)C(CCc1ccc(Cl)cc1)N(C)CC2 (stereo not given)", "fold change": 1.1}

The recorded fold change for COc1ccc(C(=O)c2c(C)n(CCN3CCOCC3)c3ccccc23)cc1 is 1.25

The recorded fold change for COc1ccc(C(=O)O[C@H]2CC[C@@]3(C)[C@@H]4CC[C@H]5[C@]6(O)C[C@H](O)[C@@]7(O)[C@@H](CN8C[C@@H](C)CC[C@H]8[C@@]7(C)O)[C@]6(O)C[C@@]53O[C@]24O)cc1OC is 1.54

The recorded fold change for O=c1ccc2cc(OC3OC(CO)C(O)C(O)C3O)c(O)cc2o1 (stereo not given) is 0.851

---

assay: HepG2 cytotoxicity, primary screen, cytotoxicity control for P. falciparum antimalarial project, cell-based, ATP luminescence (AID 2303); conditions: HepG2 viability, 24-48 h, at 10 µM, stronger effect = higher value;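 further: 0% = DMSO wells and 100% = digitonin-killed cells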
Sorting guide: entries reporting inhibition beneath 50% go in the met pile, the rest go in the not met pile.

Consider the worked cases shown below.
{"COMPOUND": "Cc1cc(N(C)C2CCN(C)CC2)nc(Nc2ccc(Br)cc2)n1", "QUALITATIVE LABEL": "met"}
{"COMPOUND": "O=C(/C=C/c1ccsc1)NC1CCC(CN2CCC(c3c[nH]c4ccccc34)CC2)CC1 (stereo not given)", "QUALITATIVE LABEL": "met"}
{"COMPOUND": "O=C(Nc1ccc(Oc2ccccc2)cc1)NC1CCC(CN2CCC(c3c[nH]c4ccccc34)CC2)CC1 (stereo not given)", "QUALITATIVE LABEL": "not met"}
{"COMPOUND": "Cc1ccc(-n2nc(C)c3c2NC(=O)CSC3c2ccsc2)cc1 (stereo not given)", "QUALITATIVE LABEL": "met"}
{"COMPOUND": "O=C(c1cc(C(=O)NCc2ccc(Cl)cc2)c(=O)n(Cc2ccc(Cl)cc2)c1)c1cc(F)ccc1O", "QUALITATIVE LABEL": "met"}

Hello, I'm reviewing records and need to know if inhibition of Cc1c(C(=O)NC2CCC(CN3CCC(c4c[nH]c5ccccc45)CC3)CC2)cnn1-c1c(Cl)cc(Cl)cc1Cl (stereo not given) is below 50%. Could you check? not met

Hello, I'm reviewing records and need to know if inhibition of CC(Cc1ccc(OCCCCOc2ccccc2)cc1)NCCC1CCCN1C (stereo not given) is below 50%. Could you check? not met

Hello, I'm reviewing records and need to know if inhibition of CNCCc1c(O)ccc2ccccc12 is below 50%. Could you check? met

Hello, I'm reviewing records and need to know if inhibition of CNCC(O)c1cc(Cl)c(Cl)cc1C (stereo not given) is below 50%. Could you check? met

---

experiment: inhibition of 3D7 malaria parasite growth – strain 3D7 (AID 2306);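 further: 0% = DMSO wells and 100% = chloroquine plus artemisinin control wells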; settings: P. falciparum 3D7 erythrocytic growth, LDH absorbance, 72 h; at 2 µM; stronger effect = higher value
ASSAY METRIC: growth inhibition (%)
Express the result in % but write the number alone.

Known growth inhibition results, listed for orientation:
{"MOLECULE": "[O-]c1n[n+](C2CCCCC2)no1", "RECORDED MEASUREMENT": 91}
{"MOLECULE": "Cc1[nH]c2ccccc2c1C1=CCN(C[C@H]2C[C@@H]2C(=O)c2ccccc2)CC1", "RECORDED MEASUREMENT": 95}
{"MOLECULE": "CC(C)n1ncc2c(C(=O)Nc3ccc(C#N)c(Cl)c3)cc(C3CC3)nc21", "RECORDED MEASUREMENT": 93}
{"MOLECULE": "Fc1ccc2[nH]cc(CCN3CCC(CNCc4ccccc4)CC3)c2c1", "RECORDED MEASUREMENT": 100}
{"MOLECULE": "Cn1c(C2C[C@H]3CC[C@H](C2)N3CC2CCC(NC(=O)/C=C/c3ccc(Cl)c(Cl)c3)CC2)nc2ccccc21 (stereo not given in full)", "RECORDED MEASUREMENT": 100}
{"MOLECULE": "Oc1cccc(C2CCCN(CCc3c[nH]c4ccccc34)C2)c1 (stereo not given)", "RECORDED MEASUREMENT": 93}

The recorded growth inhibition for CC(Cc1ccc(C2=CCNCC2)cc1)NCC(O)c1cccc(C(F)(F)F)c1 (stereo not given) is 89

The recorded growth inhibition for Oc1ccc(Cl)cc1CN1CCC(CCOC(c2ccccc2)c2ccc(Cl)cc2)CC1 (stereo not given) is 98

The recorded growth inhibition for OC(CNC1CCCCCC1)c1ccc(Cl)c(Cl)c1 (stereo not given) is 99

The recorded growth inhibition for O=C(Cc1cc(=O)oc2cc(O)ccc12)N1CCC(CN2CCC(c3c[nH]c4ccccc34)CC2)CC1 is 94
